# SYSTEM_NAME: FGFR3 (V555M) (Homo sapiens, UniProt P22607, V555M)
# Construct: made in house; host or cells: E. coli (BL21-derived), T7 phage
# Sequence (P22607 23-806 V555M): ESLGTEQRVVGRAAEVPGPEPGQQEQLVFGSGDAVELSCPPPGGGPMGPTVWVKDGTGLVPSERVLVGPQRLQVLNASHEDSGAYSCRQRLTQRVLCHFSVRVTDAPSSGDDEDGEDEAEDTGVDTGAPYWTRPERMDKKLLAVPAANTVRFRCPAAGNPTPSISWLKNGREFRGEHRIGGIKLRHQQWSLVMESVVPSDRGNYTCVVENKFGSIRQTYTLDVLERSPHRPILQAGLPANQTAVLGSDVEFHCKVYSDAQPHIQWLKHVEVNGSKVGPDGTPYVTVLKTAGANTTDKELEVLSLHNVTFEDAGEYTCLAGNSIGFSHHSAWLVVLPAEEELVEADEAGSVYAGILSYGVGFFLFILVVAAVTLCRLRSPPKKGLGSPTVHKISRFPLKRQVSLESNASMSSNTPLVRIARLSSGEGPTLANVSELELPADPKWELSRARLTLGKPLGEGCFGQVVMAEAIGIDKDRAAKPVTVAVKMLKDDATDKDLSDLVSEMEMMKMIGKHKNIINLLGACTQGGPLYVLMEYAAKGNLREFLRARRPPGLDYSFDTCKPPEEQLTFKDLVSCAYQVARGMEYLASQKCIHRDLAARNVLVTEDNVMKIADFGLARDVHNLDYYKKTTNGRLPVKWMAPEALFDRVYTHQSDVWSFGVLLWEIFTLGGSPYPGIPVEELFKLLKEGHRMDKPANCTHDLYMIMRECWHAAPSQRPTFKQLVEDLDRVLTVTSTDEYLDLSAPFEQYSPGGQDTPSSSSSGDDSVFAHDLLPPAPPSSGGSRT
# TEST_PROTOCOL: Kinase binding assay (kinase-tagged T7 phage, affinity beads, qPCR), Kd
# CONDITION_SUMMARY: V555M mutant; read-out: FGFR3 (V555M) (Kd nM)
PARAMETER: Kd

See these solved cases before continuing.
COc1cc2[nH]nc(-c3ccc(N4CC(C)(CP(C)(C)=O)C4)nc3)c2cc1O[C@H](C)c1c(Cl)cncc1Cl [Example 180]: 1 to 50 nM
COc1cc2[nH]nc(-c3cnc(N4CC(C)(NCCO)C4)c(F)c3)c2cc1O[C@H](C)c1c(Cl)cncc1Cl [Example 164]: 1 to 50 nM
C[C@@H](Oc1ccc2[nH]nc(-c3ccc(N4CC(C)(CS(C)(=O)=O)C4)nc3)c2c1)c1c(Cl)cncc1Cl [Example 181]: 1 to 50 nM
Cc1ncc(Cl)c([C@@H](C)Oc2ccc3[nH]nc(-c4ccc(N5CC(C)(N6CCOCC6)C5)nc4)c3c2)c1Cl [Example 77]: 1 to 50 nM
C[C@@H](Oc1cc2c(-c3cnc(N4CC(C)(N5CCOCC5)C4)c(C#N)c3)n[nH]c2cc1F)c1c(Cl)cncc1Cl [Example 124]: 1 to 50 nM
COc1cc2[nH]nc(-c3cnc(N4CC(C)(NCC5(O)CC5)C4)c(F)c3)c2cc1O[C@H](C)c1c(Cl)cncc1Cl [Example 119]: 1 to 50 nM
CC[C@@H](C)NC1(C)CN(c2ccc(-c3n[nH]c4ccc(O[C@H](C)c5c(Cl)cncc5Cl)cc34)cn2)C1 [Example 225]: 1 to 50 nM
COc1cc2[nH]nc(-c3ccc(N4CC(C)(NCCO)C4)nc3)c2cc1O[C@H](C)c1c(Cl)cncc1Cl [Example 83]: 1 to 50 nM

Query :: Could you tell me which Kd is on file for C[C@@H](Oc1ccc2[nH]nc(-c3cnc(N4CC(C)(NCCO)C4)c(F)c3)c2c1)c1c(Cl)cncc1Cl [Example 114] ?
Result :: 1 to 50 nM

Query :: Likewise for C[C@@H](Oc1ccc2[nH]nc(-c3cnc(N4CC(C)(CP(C)(C)=O)C4)c(F)c3)c2c1)c1c(Cl)cncc1Cl [Example 121] ?
Result :: 1 to 50 nM
